System: HEK293
Experiment: Cytotoxicity against HEK293 cells assessed as inhibition of cell growth at 100 uM incubated for 24 to 48 hrs by MTT assay
Assay type: toxicity, cell-based
Settings: human, hek293, 100 µM, time 24-48 hrs
Measured quantity: Activity

Compound | Measured quantity | Assay value
CC(c1ccc(O)c(O)c1)c1cc(=O)c2c(O)cccc2o1 (centres undefined) | Activity | Non-Toxic
O=c1c(OCCCO)c(-c2ccc(O)c(O)c2)oc2cc(O)cc(O)c12 | Activity | Non-Toxic
CCCCOc1c(-c2ccc(O)c(O)c2)oc2cc(O)cc(O)c2c1=O | Activity | Non-Toxic
O=c1c(OCCO)c(-c2ccc(O)c(O)c2)oc2cc(O)cc(O)c12 | Activity | Non-Toxic

----------
I'd appreciate it if you could supply half-life values for the items below.
Test: Metabolic stability in mouse plasma assessed as half life measured upto 120 mins by LC-MS/MS analysis
Assay type: ADME, cell-free

half-life reading for O=c1cc(Cc2ccc(O)c(O)c2)oc2cccc(O)c12 : > 1 h

// sample CC(c1ccc(O)c(O)c1)c1cc(=O)c2c(O)cccc2o1 (centres undefined) , its half-life was > 1 h

Lookup result for CCCCOc1c(-c2ccc(O)c(O)c2)oc2cc(O)cc(O)c2c1=O ; measured half-life: > 1 h

// sample O=c1c(OCCO)c(-c2ccc(O)c(O)c2)oc2cc(O)cc(O)c12 , its half-life was > 1 h

Recorded result, O=c1cc(CCc2ccc(O)c(O)c2)oc2cccc(O)c12 , half-life: > 1 h

Record O=c1c(O)c(-c2ccc(O)c(O)c2)oc2cc(O)cc(O)c12 [QUERCETIN] . Reported half-life: > 1 h

half-life for O=C(Nc1ccc(O)c(O)c1)c1cc(=O)c2c(O)cccc2o1 is 1 h

Value of measured half-life for the entry O=c1c(OCCCO)c(-c2ccc(O)c(O)c2)oc2cc(O)cc(O)c12 : 1 h

Entry O=c1cc(-c2ccc(O)c(O)c2)oc2cc(O)cc(O)c12 [LUTEOLIN] — recorded half-life = > 1 h

----------
For each entry below, report its Kinetic_solubility value.
Test: Kinetic solubility of the compound in pH 7.4 PBS incubated for 24 hrs by UPLC/MS analysis
Type: physicochemical
Conditions: buffer, pH 7.4, 24 h
Write the answer as a number in µM, unit excluded.

Measured Kinetic_solubility, Cc1c(-c2ccc(O)c(O)c2)oc2cc(O)cc(O)c2c1=O : 32

Record O=c1cc(CCc2ccc(O)c(O)c2)oc2cccc(O)c12 , field Kinetic_solubility: 67

Note to self: Kinetic_solubility recorded for CCCCOc1c(-c2ccc(O)c(O)c2)oc2cc(O)cc(O)c2c1=O was 156

In plain terms, CC(c1ccc(O)c(O)c1)c1cc(=O)c2c(O)cccc2o1 (configuration not stated) has a documented Kinetic_solubility of 165

Just so you know, measured Kinetic_solubility for O=c1c(OCCO)c(-c2ccc(O)c(O)c2)oc2cc(O)cc(O)c12 came out at 167

// sample CCCc1c(-c2ccc(O)c(O)c2)oc2cc(O)cc(O)c2c1=O , its Kinetic_solubility was 13

O=c1cc(Cc2ccc(O)c(O)c2)oc2cccc(O)c12 has a reported Kinetic_solubility of 63

The reported Kinetic_solubility of the compound O=C(Nc1ccc(O)c(O)c1)c1cc(=O)c2c(O)cccc2o1 was 65

----------
Experiment: Metabolic stability in mouse liver microsomes assessed as half life preincubated with microsomes for 15 mins followed by NADPH addition and measured upto 60 mins by LC-MS/MS analysis
Type: ADME, Microsome
Conditions: time < 75 min
For each entry below, report its half-life value.

Lab book: half-life of O=c1cc(Cc2ccc(O)c(O)c2)oc2cccc(O)c12 noted as > 2 h

Value of measured half-life for the entry O=c1cc(-c2ccc(O)c(O)c2)oc2cc(O)cc(O)c12 [LUTEOLIN] : > 2 h

Record CCCCOc1c(-c2ccc(O)c(O)c2)oc2cc(O)cc(O)c2c1=O , field half-life: > 2 h

Lab note: CC(c1ccc(O)c(O)c1)c1cc(=O)c2c(O)cccc2o1 (centres undefined) gave half-life of > 2 h

Field half-life (entry O=C(Nc1ccc(O)c(O)c1)c1cc(=O)c2c(O)cccc2o1 ) reads 1.38 h

Entry O=c1c(O)c(-c2ccc(O)c(O)c2)oc2cc(O)cc(O)c12 [QUERCETIN] — recorded half-life = 0.117 h

Briefly, half-life measured for O=c1c(OCCCO)c(-c2ccc(O)c(O)c2)oc2cc(O)cc(O)c12 : 1.5 h

Lab book: half-life of O=c1cc(CCc2ccc(O)c(O)c2)oc2cccc(O)c12 noted as > 2 h

Reported half-life ( O=c1c(OCCO)c(-c2ccc(O)c(O)c2)oc2cc(O)cc(O)c12 ) = > 2 h

----------
Test: Kinetic solubility of the compound in pH 7.4 PBS incubated for 24 hrs by UPLC/MS analysis
Assay type: physicochemical
Conditions: buffer, pH 7.4, 24 h
Task for the reader: assign each of the following compounds its reported Kinetic_solubility.

Reported Kinetic_solubility for CCCCc1c(-c2ccc(O)c(O)c2)oc2cc(O)cc(O)c2c1=O was < 1 µM

Just so you know, measured Kinetic_solubility for O=C(NCCNC(=S)Nc1ccc(O)c(O)c1)c1cc(=O)c2c(O)cccc2o1 came out at < 1 µM

Just so you know, measured Kinetic_solubility for O=c1cc(/C=C/c2ccc(O)c(O)c2)oc2cccc(O)c12 came out at < 1 µM

Data point: O=C(Oc1ccc(O)c(O)c1)c1cc(=O)c2c(O)cccc2o1 ; Kinetic_solubility = < 1 µM

Where do the numbers come from? From ChEMBL document CHEMBL5223176.
